Assay Setup: in n-propyl acetate, 303.15 K
Result Type: solubility (mole fraction)

For the molecule CCCSc1ccc2nc(NC(=O)OC)[nH]c2c1 , what solubility (mole fraction) is on record? 0.000858

---

Assay Setup: in methanol, 308.15 K
Result Type: solubility (mole fraction)
Form: value (number only, do not type unit).

What solubility (mole fraction) value was documented for this compound, CCCSc1ccc2nc(NC(=O)OC)[nH]c2c1 ? 0.000257

---

Assay Setup: in methanol, 303.15 K
Result Type: solubility (mole fraction)
Give only the figure.

For CCCSc1ccc2nc(NC(=O)OC)[nH]c2c1 , what is its reported solubility (mole fraction)? 0.000205

---

Assay Setup: in ethanol, 293.15 K
Result Type: solubility (mole fraction)
Returns: the value as a bare number; no unit string appended.

Request the reported solubility (mole fraction) associated with CCCSc1ccc2nc(NC(=O)OC)[nH]c2c1 0.00011

---

Assay Setup: in methanol, 293.15 K
Result Type: solubility (mole fraction)
Would you mind answering with just the numeric figure?

Query: solubility (mole fraction); subject: CCCSc1ccc2nc(NC(=O)OC)[nH]c2c1 0.000157

---

Assay Setup: in n-butyl acetate, 318.15 K
Result Type: solubility (mole fraction)
Simply state the number, no unit and no words.

Value lookup for solubility (mole fraction); key = CCCSc1ccc2nc(NC(=O)OC)[nH]c2c1 0.00132

---

Assay Setup: in ethyl acetate, 318.15 K
Result Type: solubility (mole fraction)
Form rule: numeric answer, no unit written next to it.

GET /values?readout=solubility (mole fraction)&item= CCCSc1ccc2nc(NC(=O)OC)[nH]c2c1 0.0015

---

Assay Setup: in isopropanol, 323.15 K
Result Type: solubility (mole fraction)

// lookup solubility (mole fraction) for CCCSc1ccc2nc(NC(=O)OC)[nH]c2c1 0.000553

---

Assay Setup: in ethyl acetate, 323.15 K
Result Type: solubility (mole fraction)
Field format: numeric only.

Item CCCSc1ccc2nc(NC(=O)OC)[nH]c2c1 has what recorded solubility (mole fraction)? 0.00167

---

Assay Setup: in methanol, 323.15 K
Result Type: solubility (mole fraction)
Simply state the number, no unit and no words.

// query solubility (mole fraction) value for entry CCCSc1ccc2nc(NC(=O)OC)[nH]c2c1 0.000428

---

Assay Setup: in n-butyl acetate, 288.15 K
Result Type: solubility (mole fraction)

// query solubility (mole fraction) value for entry CCCSc1ccc2nc(NC(=O)OC)[nH]c2c1 0.000691

---

Assay Setup: in isopropanol, 298.15 K
Result Type: solubility (mole fraction)
Would you mind answering with just the numeric figure?

What measured solubility (mole fraction) goes with CCCSc1ccc2nc(NC(=O)OC)[nH]c2c1 ? 0.000234

---

Assay Setup: in isopropanol, 288.15 K
Result Type: solubility (mole fraction)

Tell me the measured solubility (mole fraction) of CCCSc1ccc2nc(NC(=O)OC)[nH]c2c1 , please. 0.000156

---

Assay Setup: in isobutyl acetate, 293.15 K
Result Type: solubility (mole fraction)
// print number alone

May I ask what solubility (mole fraction) has been recorded for CCCSc1ccc2nc(NC(=O)OC)[nH]c2c1 ? 0.000671

---

Assay Setup: in n-butyl acetate, 278.15 K
Result Type: solubility (mole fraction)
Please respond with just the number, no unit label.

// lookup solubility (mole fraction) for CCCSc1ccc2nc(NC(=O)OC)[nH]c2c1 0.000553
